Source of measurements: the supplement of paper PMC12340641

Would you mind telling me the reported relative growth in counter assay of each entry?
Tested on: HEK293FT dCK*-only
Assay: relative growth in counter assay (no AraC = 100%, AraC + DMSO = 0%); higher = more growth rescue independent of IKZF1
Conditions: compound concentration: 5 uM; AraC concentration: 0.3 uM; overnight pretreatment + 4 days AraC

molecule	relative growth in counter assay
CCNC(=O)Nc1ccc(-c2nc3c(c(N4CCOC[C@@H]4C)n2)CCN(C2COC2)C3)cc1	-31.5%
Cc1coc2c1C(=O)C(=O)c1c-2ccc2c1CCCC2(C)C	5.29%
CCCCCCCCCCCC1=C(O)C(=O)C=C(O)C1=O	-6.94%
Cc1ccc(S(=O)(=O)N/N=C/c2cc(Br)ccc2O)cc1	-14%

Now look at this one.
Query string: Note relative growth in counter assay for the compound shown: O=C(Nc1cnc(Cl)nc1)c1ccc(F)c(F)c1
Result string: 1.83%
